Quick reference for pEC50 among some compounds
Test system: HCV replicon cells
Assay: HCV replicon FRET / luciferase assay (96-well plates)
Format: cell-based
Conditions: Hepatitis C virus, Table 1a; HCV replicon; read-out: EC50
pEC50: −log10 of the molar value.

Some entries whose results are on file:
| compound | readout kind | result value |
| --- | --- | --- |
| CNC(=O)c1c(-c2ccc(F)cc2)oc2ccc(-c3cccc(C(=O)NC(C)(C)C(=O)NCC#N)c3)cc12 | pEC50 | 6.00 to 6.60 |
| CNC(=O)c1c(-c2ccc(F)cc2)oc2ccc(-c3cccc(C(=O)Nc4ccc(OC)cc4)c3)cc12 | pEC50 | > 6.60 |

Lookup: pEC50 / HCV replicon cells / `CNC(=O)c1c(-c2ccc(F)cc2)oc2ccc(-c3ccc(C(=O)NCCC(N)=O)cc3)cc12`
< 5.00

Lookup: pEC50 / HCV replicon cells / `CNC(=O)c1c(-c2ccc(F)cc2)oc2ccc(-c3cccc(C(=O)N(C)S(=O)(=O)c4ccccc4)c3)cc12`
5.00 to 6.00

Lookup: pEC50 / HCV replicon cells / `CNC(=O)c1c(-c2ccc(F)cc2)oc2ccc(-c3cc(C(=O)NCC(C)C)ccc3F)cc12`
> 6.60

Lookup: pEC50 / HCV replicon cells / `CNC(=O)c1c(-c2ccc(F)cc2)oc2ccc(-c3cccc(C(=O)NCc4ccc(C)cc4)c3)cc12`
> 6.60

Lookup: pEC50 / HCV replicon cells / `CNC(=O)c1c(-c2ccc(F)cc2)oc2ccc(-c3cccc(C(=O)NC4CC4)c3)cc12`
6.00 to 6.60

Lookup: pEC50 / HCV replicon cells / `CNC(=O)c1c(-c2ccc(F)cc2)oc2ccc(-c3ccc(C(=O)NCCO)cc3)cc12`
5.00 to 6.00

Lookup: pEC50 / HCV replicon cells / `CNC(=O)c1c(-c2ccc(F)cc2)oc2ccc(-c3cccc(C(=O)N(C)CC(C)C)c3)cc12`
6.00 to 6.60

====

Target: HCV NS5B RdRp genotype 1b (Hepatitis C virus genotype 1b)
Construct: The protein was expressed with an 18 amino acid C-terminal truncation to enhance the solubility; made in house; host or cells: E. coli BL21(DE3), pET21a vector
Experiment: Standard HCV NS5B RdRp enzyme assay
Assay type: biochemical
Conditions: Table 1a; HCV NS5B RdRp genotype 1b; read-out: IC50
pIC50: −log10 of the molar value.
readout kind: pIC50

| compound | study system | result value |
| --- | --- | --- |
| CNC(=O)c1c(-c2ccc(F)cc2)oc2ccc(-c3cccc(C(=O)N[C@@H](CO)CC(C)C)c3)cc12 | HCV NS5B RdRp genotype 1b (Hepatitis C virus genotype 1b) | 5.00 to 6.00 |

Param item = CNC(=O)c1c(-c2ccc(F)cc2)oc2ccc(-c3cccc(C(=O)NC4CCC(C)CC4)c3)cc12 (centres unmarked) ; retrieve measured pIC50.
> 6.60

Param item = `CNC(=O)c1c(-c2ccc(F)cc2)oc2ccc(-c3cccc(C(=O)N[C@H](CO)C(=O)OC)c3)cc12` ; retrieve measured pIC50.
6.00 to 6.60

Param item = `CNC(=O)c1c(-c2ccc(F)cc2)oc2ccc(-c3ccc(/C=C/C(=O)O)cc3)cc12` ; retrieve measured pIC50.
5.00 to 6.00

Param item = CCCC[C@H](CO)NC(=O)c1cccc(-c2ccc3oc(-c4ccc(F)cc4)c(C(=O)NC)c3c2)c1 [drawing 232] ; retrieve measured pIC50.
6.00 to 6.60

====

Tested on: HCV replicon cells
Test: HCV replicon FRET / luciferase assay (96-well plates)
Format: cell-based
Details: Hepatitis C virus, Table 1b; HCV replicon; read-out: EC50
Excerpt: FRET Assay Preparation. To perform the HCV FRET screening assay, 96-well cell culture plates were used. The FRET peptide (Anaspec, Inc.) (Taliani et al., Anal. Biochem. 1996, 240, 60-67) contains a fluorescence donor, EDANS, near one end of the peptide and an acceptor, DABCYL, near the other end. […] Assays. […] The plate was then placed into the Cytoflour 4000 instrument which had been set to 340 excite/490 emission, automatic mode for 20 cycles and the plate read in a kinetic mode. […]
readout kind: EC50

| molecule | EC50 |
| --- | --- |
| CNC(=O)c1c(-c2ccc(F)cc2)oc2ccc(-c3cc(C(=O)NC4(c5ccccc5)CC4)ccc3OCC(N)=O)cc12 | < 250 nM |

Next molecule, EC50 to be filled in.
Param item = `CNC(=O)c1c(-c2ccc(F)cc2)oc2ccc(-c3cc(C(=O)NCC(C)C)ccc3OCCC(N)=O)cc12` ; retrieve measured EC50.
> 10000 nM

====

Molecular target: HCV NS5B RdRp genotype 1b (Hepatitis C virus genotype 1b, UniProt Q9WMX2)
Construct: The protein was expressed with an 18 amino acid C-terminal truncation to enhance the solubility; made in house; host or cells: E. coli BL21(DE3), pET21a vector
Sequence (Q9WMX2 2420-2992): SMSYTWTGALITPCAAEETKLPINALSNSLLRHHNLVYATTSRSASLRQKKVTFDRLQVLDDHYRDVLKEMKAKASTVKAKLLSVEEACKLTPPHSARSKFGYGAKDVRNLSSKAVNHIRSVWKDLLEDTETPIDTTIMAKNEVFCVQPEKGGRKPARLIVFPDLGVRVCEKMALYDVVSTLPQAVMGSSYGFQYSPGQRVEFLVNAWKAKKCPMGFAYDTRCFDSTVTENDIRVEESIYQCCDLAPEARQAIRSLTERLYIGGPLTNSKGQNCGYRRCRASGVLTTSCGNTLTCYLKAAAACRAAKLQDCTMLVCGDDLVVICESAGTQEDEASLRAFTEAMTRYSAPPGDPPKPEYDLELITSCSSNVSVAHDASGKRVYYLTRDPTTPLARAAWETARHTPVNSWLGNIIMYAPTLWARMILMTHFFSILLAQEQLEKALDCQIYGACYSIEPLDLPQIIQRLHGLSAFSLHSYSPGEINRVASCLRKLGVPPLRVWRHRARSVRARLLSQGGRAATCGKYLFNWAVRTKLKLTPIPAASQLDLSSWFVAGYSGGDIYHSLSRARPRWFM
Experiment: Standard HCV NS5B RdRp enzyme assay
Type: biochemical
Conditions: Table 1b; HCV NS5B RdRp genotype 1b; read-out: IC50
pIC50: −log10 of the molar value.
readout kind: pIC50

Some entries whose results are on file:
| compound | result value |
| --- | --- |
| CNC(=O)c1c(-c2ccc(F)cc2)oc2ccc(-c3cc(C(=O)NCC(C)C)ccc3OCc3cn(C)cn3)cc12 | 5.00 to 6.00 |
| CNC(=O)c1c(-c2ccc(F)cc2)oc2ccc(-c3ccc(-c4cnc(N)nc4)c(C(=O)NCC(C)C)c3)cc12 | > 6.60 |

Param item = `CNC(=O)c1c(-c2ccc(F)cc2)oc2ccc(-c3cc(C(=O)NC4(c5ccccc5)CC4)ccc3OCCO)cc12` ; retrieve measured pIC50.
> 6.60

Param item = `CNC(=O)c1c(-c2ccc(F)cc2)oc2ccc(-c3cc(C(=O)NC4(c5ccccn5)CC4)ccc3OC(F)(F)F)cc12` ; retrieve measured pIC50.
6.00 to 6.60

Param item = `CNC(=O)c1c(-c2ccc(F)cc2)oc2ccc(-c3cc(C(=O)NCC(C)C)ccc3OCCOC)cc12` ; retrieve measured pIC50.
6.00 to 6.60

Param item = `CCCOc1ccc(C(=O)NCC(C)C)cc1-c1ccc2oc(-c3ccc(F)cc3)c(C(=O)NC)c2c1` ; retrieve measured pIC50.
5.00 to 6.00

Param item = `CNC(=O)c1c(-c2ccc(F)cc2)oc2ccc(-c3cc(C(=O)NC4(c5ccccn5)CC4)c(F)cc3Cl)cc12` ; retrieve measured pIC50.
> 6.60

Param item = CNC(=O)c1c(-c2ccc(F)cc2)oc2ccc(-c3cc(C(=O)NC4(c5ccccc5)CC4)ccc3C)cc12 [drawing 362] ; retrieve measured pIC50.
> 6.60

Param item = `CNC(=O)c1c(-c2ccc(F)cc2)oc2ccc(-c3ccc(-c4ccccc4COC)c(C(=O)NCC(C)C)c3)cc12` ; retrieve measured pIC50.
6.00 to 6.60

Param item = `CNC(=O)c1c(-c2ccc(F)cc2)oc2ccc(-c3cccc(C(=O)NC(C)(C)c4ccncc4)c3)cc12` ; retrieve measured pIC50.
> 6.60

Param item = `CNC(=O)c1c(-c2ccc(F)cc2)oc2ccc(-c3cccc(C(=O)NC(C)(C)C(=O)Nc4cc(C)no4)c3)cc12` ; retrieve measured pIC50.
> 6.60

Param item = `CNC(=O)c1c(-c2ccc(F)cc2)oc2ccc(-c3cc(C(=O)NC4(c5nc(C)no5)CC4)c(OC)cc3Cl)cc12` ; retrieve measured pIC50.
> 6.60

Param item = `CNC(=O)c1c(-c2ccc(F)cc2)oc2ccc(-c3ccc(-c4cncc(C)c4)c(C(=O)NCC(C)C)c3)cc12` ; retrieve measured pIC50.
6.00 to 6.60

Param item = `CNC(=O)c1c(-c2ccc(F)cc2)oc2ccc(-c3ccc(-c4cccnc4OC)c(C(=O)NCC(C)C)c3)cc12` ; retrieve measured pIC50.
> 6.60

Param item = CNC(=O)c1c(-c2ccc(F)cc2)oc2ccc(-c3cc(C(=O)NC4(c5ccccn5)CC4)ccc3Cl)cc12 [drawing 384] ; retrieve measured pIC50.
> 6.60

====

System: HCV replicon cells
Test: HCV replicon FRET / luciferase assay (96-well plates)
Assay type: cell-based
Conditions: Hepatitis C virus, 24 h, Table 1d (class symbols); HCV replicon; read-out: EC50
pEC50: −log10 of the molar value.
Quick reference for pEC50 among some molecules

| molecule | readout kind | result value |
| --- | --- | --- |
| CNC(=O)c1c(-c2ccc(F)cc2)oc2ccc(-c3cc(C(=O)NC4(c5ocnc5C)CC4)c(OC)cc3C)cc12 | pEC50 | 6.60 to 9.00 |
| CNC(=O)c1c(-c2ccc(F)cc2)oc2ccc(-c3cc(C(=O)NC4(c5ncc(F)cn5)CC4)c(OC)cc3C)cc12 | pEC50 | 6.60 to 9.00 |
| CNC(=O)c1c(-c2ccc(F)cc2)oc2ccc(-c3cc(C(=O)NC4(c5ccccn5)CC4)c(OCc4ccc(Cl)cc4)cc3C)cc12 | pEC50 | 6.60 to 9.00 |

Next molecule, pEC50 to be filled in.
Param item = CNC(=O)c1c(-c2ccc(F)cc2)oc2ccc(-c3cc(C(=O)NC4(c5ccccn5)CC4)c(OCC(=O)OC)cc3C)cc12 [drawing 642] ; retrieve measured pEC50.
6.00 to 6.60
